# Tested on: HI-HeLa cells
# test.protocol: Cytotoxicity (CC50) in mock-infected HI-HeLa cells, antirhinoviral assay
# Format: cell-based
# details: line of HRV serotype 1A
measure: CC50

The following molecules have reported results that may help.
- molecule: "CC(C)C(NC(=O)SC1CCCC1)C(=O)CC(Cc1ccc(F)cc1)C(=O)NC(C=CC(=O)OCCO)CCC(N)=O (centres unmarked) [Compound 33]"
  target.or.test.system: "HI-HeLa cells"
  measure: "CC50"
  result: "> 32 µM"
- molecule: "CC(C)C(NC(=O)SC1CCCC1)C(=O)CC(Cc1ccc(F)cc1)C(=O)NC(C=CC(=O)OCc1cccnc1)CCC(N)=O (centres unmarked) [Compound 28]"
  target.or.test.system: "HI-HeLa cells"
  measure: "CC50"
  result: "> 10 µM"
- molecule: "CCOC(=O)C=CC(CCC(N)=O)NC(=O)C(CC(=O)C(NC(=O)c1cc(C)on1)C(C)C)Cc1ccc(F)cc1 (centres unmarked) [Compound 34]"
  target.or.test.system: "HI-HeLa cells"
  measure: "CC50"
  result: "> 3 µM"
- molecule: "CCOC(=O)/C=C/C(CCC(N)=O)NC(=O)C(CC(=O)C(NC(=O)SC1CCCC1)C(C)C)Cc1ccc(C)cc1 (centres unmarked) [Compound 11]"
  target.or.test.system: "HI-HeLa cells"
  measure: "CC50"
  result: "> 3 µM"
- molecule: "CC(C)C(NC(=O)SC(C)(C)C)C(=O)CC(Cc1ccc(F)cc1)C(=O)NC(C=CC(=O)OCc1cccnc1)CCC(N)=O (centres unmarked) [Compound 32]"
  target.or.test.system: "HI-HeLa cells"
  measure: "CC50"
  result: "> 32 µM"
- molecule: "CCOC(=O)C=CC(CCC(N)=O)NC(=O)C(CC(=O)C(NC(=O)SC(C)(C)C)C(C)C)Cc1ccc(F)cc1 (centres unmarked) [Compound 26]"
  target.or.test.system: "HI-HeLa cells"
  measure: "CC50"
  result: "> 10 µM"
- molecule: "CCOC(=O)C=CC(CCC(N)=O)NC(=O)C(CC(=O)C(NC(=O)C1SCCS1)C(C)C)Cc1ccc(F)cc1 (centres unmarked) [Compound 27]"
  target.or.test.system: "HI-HeLa cells"
  measure: "CC50"
  result: "> 1 µM"

// next entry
CCOC(=O)C=CC(CCC(N)=O)NC(=O)C(CC(=O)C(NC(=O)C1SCCCS1)C(C)C)Cc1ccc(F)cc1 (centres unmarked) [Compound 31] has a reported CC50 of > 3 µM

====

# System: HI-HeLa cells
# test.protocol: Cytotoxicity (CC50) in mock-infected HI-HeLa cells, antirhinoviral assay
# Format: cell-based
# details: line of HRV serotype 39
measure: CC50

- molecule: "CCOC(=O)/C=C/C(CCC(N)=O)NC(=O)C(CC(=O)C(NC(=O)SC1CCCC1)C(C)C)Cc1ccc(C)cc1 (centres unmarked)"
  CC50: "> 3 µM"

Now take the following molecule into account.
molecule CCOC(=O)/C=C/C(CCC(N)=O)NC(=O)C(CC(=O)C(NC(=O)SC1CCCC1)C(C)C)Cc1ccccc1 (centres unmarked) , CC50 observed: > 10 µM

====

# System: HI-HeLa cells
# test.protocol: Cytotoxicity (CC50) in mock-infected HI-HeLa cells, antirhinoviral assay
# Type: cell-based
# details: line of HRV serotype-14
// values below are reported CC50

Some solved cases for reference:
- compound: "CCOC(=O)/C=C/[C@H](CCC(N)=O)NC(=O)[C@@H](CC(=O)[C@H](CC(C)C)NC(=O)SCC)Cc1ccccc1"
  CC50: "> 320 µM"
- compound: "CCOC(=O)/C=C/C(CCC(N)=O)NC(=O)C(CC(=O)C(NC(=O)SC1CCCC1)C(C)C)Cc1ccccc1 (stereo not shown)"
  CC50: "> 10 µM"
- compound: "CCOC(=O)/C=C/[C@H](CCC(N)=O)NC(=O)[C@@H](CC(=O)[C@@H](NC(=O)SCC)C(C)C)Cc1ccc(C)cc1"
  CC50: "> 1 µM"

API: the following record is the query input.
The compound CCOC(=O)/C=C/C(CCC(N)=O)NC(=O)C(CC(=O)C(NC(=O)SCc1ccccc1)C(C)C)Cc1ccccc1 (stereo not shown) , when measured on HI-HeLa cells, yielded CC50 of > 320 µM

// data source = patent US6649639B2
